Sourced from patent US5378690A

TARGET_OF_ASSAY: human renin (Homo sapiens, UniProt P00797)
Sequence (P00797 67-406): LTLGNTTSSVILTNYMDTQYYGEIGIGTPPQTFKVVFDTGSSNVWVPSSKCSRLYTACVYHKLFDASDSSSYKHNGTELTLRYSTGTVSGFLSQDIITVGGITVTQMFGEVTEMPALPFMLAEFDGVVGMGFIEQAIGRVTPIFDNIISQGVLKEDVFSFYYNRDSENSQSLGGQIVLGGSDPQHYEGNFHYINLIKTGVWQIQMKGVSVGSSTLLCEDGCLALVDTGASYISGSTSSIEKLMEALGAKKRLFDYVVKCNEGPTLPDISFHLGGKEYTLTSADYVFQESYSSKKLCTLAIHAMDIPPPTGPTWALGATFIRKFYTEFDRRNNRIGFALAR
TEST_DESCRIPTION: Inhibition of renin activity
Type: biochemical
MEASUREMENT_SETUP: 1×10^-6 M of the test compound, sheep angiotensinogen, pH 7.3, 10 minutes at 37° C., mean of 3 or 4 experiments
MEASURED_METRIC: Inhibitory Activity (%)
Note: unit % is implicit; provide only the numeric part.

Record excerpt, results attached:
{"COMPOUND": "CC(C)CN(CC(C)C)C(=O)C[C@H](O)[C@H](CC1CCCCC1)NC(=O)[C@H](Cc1cscn1)NC(=O)[C@H](Cc1cccc2ccccc12)NC(=O)CN1CCOCC1", "UNIT_INFO": "%", "DATA_VALUE": 98.2}
{"COMPOUND": "O=C(C[C@H](O)[C@H](CC1CCCCC1)NC(=O)C(Cc1cscn1)NC(=O)[C@@H](CC(=O)N1CCN(c2ccccc2)CC1)Cc1cccc2ccccc12)NCCN1CCOCC1 (mixture of isomers)", "UNIT_INFO": "%", "DATA_VALUE": 96.3}
{"COMPOUND": "CCCCNC(=O)C[C@H](O)[C@H](CC1CCCCC1)NC(=O)[C@H](Cc1cscn1)NC(=O)[C@H](Cc1cccc2ccccc12)NC(=O)CN(C)C1CCCCC1", "UNIT_INFO": "%", "DATA_VALUE": 98.0}
{"COMPOUND": "O=C(C[C@@H](Cc1cccc2ccccc12)C(=O)N[C@@H](Cc1cscn1)C(=O)N[C@@H](CC1CCCCC1)[C@@H](O)CC(=O)NCCN1CCOCC1)NCCc1ccccc1", "UNIT_INFO": "%", "DATA_VALUE": 96.6}

Read the next record carefully.
Sample O=C(C[C@H](O)[C@H](CC1CCCCC1)NC(=O)C(Cc1cscn1)NC(=O)[C@@H](CC(=O)N1CCOCC1)Cc1cccc2ccccc12)NCCN1CCOCC1 (mixture of isomers) ; Inhibitory Activity (%) observed: 91.2

* * *

Some compounds, each annotated with its measured Inhibitory Activity (%).
TARGET_OF_ASSAY: human renin (Homo sapiens, UniProt P00797)
TEST_DESCRIPTION: Inhibition of renin activity
Format: biochemical
MEASUREMENT_SETUP: 1×10^-6 M of the test compound, sheep angiotensinogen, pH 7.3, 10 minutes at 37° C., mean of 3 or 4 experiments
Note: unit % is implicit; provide only the numeric part.

{"COMPOUND": "CCCCCCNC(=O)C[C@H](O)[C@H](CC1CCCCC1)NC(=O)[C@H](Cc1cscn1)NC(=O)[C@H](Cc1cccc2ccccc12)NC(=O)CN1CCOCC1", "UNIT_INFO": "%", "Inhibitory Activity (%)": 98.3}
{"COMPOUND": "CCC(C)CNC(=O)C[C@H](O)[C@H](CC1CCCCC1)NC(=O)[C@H](Cc1cscn1)NC(=O)[C@H](Cc1cccc2ccccc12)NC(=O)CN1CCOCC1 (mixture of isomers)", "UNIT_INFO": "%", "Inhibitory Activity (%)": 98.3}
{"COMPOUND": "CC(C)C[C@H](NC(=O)[C@H](Cc1cccc2ccccc12)NC(=O)CN(C)Cc1ccccc1)C(=O)N[C@@H](CC1CCCCC1)[C@@H](O)CC(=O)NCCCN1CCCC1=O", "UNIT_INFO": "%", "Inhibitory Activity (%)": 97.7}

Sample CC[C@H](C)[C@@H](CN1CCOCC1)NC(=O)C[C@H](O)[C@H](CC1CCCCC1)NC(=O)[C@H](Cc1cscn1)NC(=O)[C@H](CC1CCCCC1)NC(=O)CN(C)Cc1ccccc1 ; Inhibitory Activity (%) observed: 96.1

Sample CC1CN(C(=O)C[C@@H](Cc2cccc3ccccc23)C(=O)NC(Cc2cscn2)C(=O)N[C@@H](CC2CCCCC2)[C@@H](O)CC(=O)NCCN2CCOCC2)CC(C)O1 (mixture of isomers) ; Inhibitory Activity (%) observed: 96.5

Sample COc1ccccc1N1CCN(CC(=O)N[C@@H](Cc2cccc3ccccc23)C(=O)N[C@@H](Cc2cscn2)C(=O)N[C@@H](CC2CCCCC2)[C@@H](O)CC(=O)NCCN2CCOCC2)CC1 ; Inhibitory Activity (%) observed: 95.7

Sample CC(C)CCNC(=O)C[C@H](O)[C@H](CC1CCCCC1)NC(=O)[C@H](Cc1cscn1)NC(=O)[C@H](Cc1cccc2ccccc12)NC(=O)CN1CCOCC1 ; Inhibitory Activity (%) observed: 98.6

Sample CN(CC(=O)N[C@@H](CC1CCCCC1)C(=O)N[C@@H](Cc1cscn1)C(=O)N[C@@H](CC1CCCCC1)[C@@H](O)CC(=O)NCCN1CCOCC1)Cc1ccccc1 ; Inhibitory Activity (%) observed: 94.9

Sample CC(C)CNC(=O)C[C@H](O)[C@H](CC1CCCCC1)NC(=O)[C@H](Cc1cscn1)NC(=O)[C@H](Cc1cccc2ccccc12)NC(=O)CN1CCOCC1 ; Inhibitory Activity (%) observed: 98.0

Sample O=C(C[C@H](O)[C@H](CC1CCCCC1)NC(=O)C(Cc1cscn1)NC(=O)[C@H](Cc1cccc2ccccc12)NC(=O)CCCN1CCOCC1)NCCN1CCOCC1 (mixture of isomers) ; Inhibitory Activity (%) observed: 96.7

Sample CCCCNC(=O)C[C@H](O)[C@H](CC1CCCCC1)NC(=O)[C@H](Cc1cscn1)NC(=O)[C@H](Cc1cccc2ccccc12)NC(=O)CN1CCOCC1 ; Inhibitory Activity (%) observed: 98.6

Sample CCCCCNC(=O)C[C@H](O)[C@H](CC1CCCCC1)NC(=O)[C@H](Cc1cscn1)NC(=O)[C@H](Cc1cccc2ccccc12)NC(=O)CN1CCOCC1 ; Inhibitory Activity (%) observed: 98.4

Sample CCC(C)[C@@H](CO)NC(=O)C[C@H](O)[C@H](CC1CCCCC1)NC(=O)[C@H](Cc1cscn1)NC(=O)[C@@H](CC(=O)N1CCOCC1)Cc1cccc2ccccc12 (stereo partly drawn) ; Inhibitory Activity (%) observed: 98.2

Sample CC(C)N(CC(=O)N[C@@H](Cc1cccc2ccccc12)C(=O)N[C@@H](Cc1cscn1)C(=O)N[C@@H](CC1CCCCC1)[C@@H](O)CC(=O)NCCN1CCOCC1)Cc1ccccc1 ; Inhibitory Activity (%) observed: 97.4

Sample O=C(C[C@H](O)[C@H](CC1CCCCC1)NC(=O)C(Cc1cscn1)NC(=O)[C@@H](CC(=O)N1CCCCC1)Cc1cccc2ccccc12)NCCN1CCOCC1 (mixture of isomers) ; Inhibitory Activity (%) observed: 96.9

Sample CCCNC(=O)C[C@H](O)[C@H](CC1CCCCC1)NC(=O)[C@H](Cc1cscn1)NC(=O)[C@H](Cc1cccc2ccccc12)NC(=O)CN1CCOCC1 ; Inhibitory Activity (%) observed: 98.6

Sample CC(C)CCNC(=O)C[C@H](O)[C@H](CC1CCCCC1)NC(=O)[C@H](Cc1cscn1)NC(=O)[C@H](Cc1cccc2ccccc12)NC(=O)CN(C)Cc1ccccc1 ; Inhibitory Activity (%) observed: 96.0

Sample O=C(C[C@H](O)[C@H](CC1CCCCC1)NC(=O)C(Cc1cscn1)NC(=O)[C@H](Cc1cccc2ccccc12)NC(=O)CN1CCOCC1)NCCN1CCCC1 (mixture of isomers) ; Inhibitory Activity (%) observed: 91.2

Sample CC[C@H](C)CNC(=O)C[C@H](O)[C@H](CC1CCCCC1)NC(=O)[C@H](Cc1cscn1)NC(=O)[C@H](Cc1cccc2ccccc12)NC(=O)CN1CCOCC1 ; Inhibitory Activity (%) observed: 98.1

Sample O=C(C[C@H](O)[C@H](CC1CCCCC1)NC(=O)[C@H](Cc1ccno1)NC(=O)[C@@H](CC(=O)N1CCOCC1)Cc1cccc2ccccc12)NCCN1CCOCC1 ; Inhibitory Activity (%) observed: 92.2

Sample CCN(CC(=O)N[C@@H](Cc1cccc2ccccc12)C(=O)N[C@@H](Cc1cscn1)C(=O)N[C@@H](CC1CCCCC1)[C@@H](O)CC(=O)NCCN1CCOCC1)Cc1ccccc1 ; Inhibitory Activity (%) observed: 97.5
